# measured-target: human TLR7 (Homo sapiens, UniProt Q9NYK1)
# Sequence (Q9NYK1 27-1049): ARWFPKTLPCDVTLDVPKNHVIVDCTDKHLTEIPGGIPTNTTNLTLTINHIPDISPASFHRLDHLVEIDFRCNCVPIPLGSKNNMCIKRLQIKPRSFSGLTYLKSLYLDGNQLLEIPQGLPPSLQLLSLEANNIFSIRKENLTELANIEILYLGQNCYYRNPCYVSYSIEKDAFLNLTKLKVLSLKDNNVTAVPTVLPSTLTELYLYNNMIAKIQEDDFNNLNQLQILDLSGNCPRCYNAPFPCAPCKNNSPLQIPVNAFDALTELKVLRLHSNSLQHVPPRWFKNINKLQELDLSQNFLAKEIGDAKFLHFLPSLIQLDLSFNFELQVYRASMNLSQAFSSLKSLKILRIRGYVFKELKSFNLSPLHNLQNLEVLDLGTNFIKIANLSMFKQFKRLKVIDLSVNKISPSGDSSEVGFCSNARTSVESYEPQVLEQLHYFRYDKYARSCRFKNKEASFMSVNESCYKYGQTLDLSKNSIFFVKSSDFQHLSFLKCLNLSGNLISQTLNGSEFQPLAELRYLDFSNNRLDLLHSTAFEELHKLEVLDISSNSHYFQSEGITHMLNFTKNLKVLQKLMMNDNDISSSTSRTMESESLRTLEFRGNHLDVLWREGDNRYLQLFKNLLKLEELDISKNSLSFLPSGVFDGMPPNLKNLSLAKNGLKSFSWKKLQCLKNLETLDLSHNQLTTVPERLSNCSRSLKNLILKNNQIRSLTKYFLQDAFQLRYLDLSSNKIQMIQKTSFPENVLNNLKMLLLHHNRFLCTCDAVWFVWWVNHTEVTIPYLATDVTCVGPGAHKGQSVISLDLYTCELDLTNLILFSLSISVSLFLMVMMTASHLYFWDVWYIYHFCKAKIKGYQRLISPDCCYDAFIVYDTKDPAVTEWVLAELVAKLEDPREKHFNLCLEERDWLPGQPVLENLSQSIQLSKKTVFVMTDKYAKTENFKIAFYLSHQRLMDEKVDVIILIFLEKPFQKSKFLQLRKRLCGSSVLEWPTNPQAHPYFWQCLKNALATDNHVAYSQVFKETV
# experiment: TLR7 inhibition reporter assay (HEK-Blue SEAP reporter, gardiquimod stimulation)
# test-context: HEK-Blue cells overexpressing human TLR7, SEAP reporter, gardiquimod 7.5 μM, 22 hour incubation

# smiles-record, IC50
data = [
    ("Cc1c(-c2[nH]c3ccc(C4CCN(C(C)C)CC4)cc3c2C(C)C)cn(C)c(=O)c1C", "17.1 nM"),
    ("CC(C)c1c(-c2cc(CCC(C)(C)C)c(=O)n(C)c2)[nH]c2ccc(C3CCNCC3)cc12", "2190 nM"),
    ("Cc1cc(-c2[nH]c3ccc(C4CCN(C)CC4)cc3c2C(C)C)cn(C)c1=O", "2 nM"),
    ("CC(C)c1c(-c2cc(/C=C/C3CC3)c(=O)n(C)c2)[nH]c2ccc(C3CCNCC3)cc12", "185 nM"),
]

----------
# measured-target: human TLR8 (Homo sapiens, UniProt Q9NR97)
# Sequence (Q9NR97 27-1041): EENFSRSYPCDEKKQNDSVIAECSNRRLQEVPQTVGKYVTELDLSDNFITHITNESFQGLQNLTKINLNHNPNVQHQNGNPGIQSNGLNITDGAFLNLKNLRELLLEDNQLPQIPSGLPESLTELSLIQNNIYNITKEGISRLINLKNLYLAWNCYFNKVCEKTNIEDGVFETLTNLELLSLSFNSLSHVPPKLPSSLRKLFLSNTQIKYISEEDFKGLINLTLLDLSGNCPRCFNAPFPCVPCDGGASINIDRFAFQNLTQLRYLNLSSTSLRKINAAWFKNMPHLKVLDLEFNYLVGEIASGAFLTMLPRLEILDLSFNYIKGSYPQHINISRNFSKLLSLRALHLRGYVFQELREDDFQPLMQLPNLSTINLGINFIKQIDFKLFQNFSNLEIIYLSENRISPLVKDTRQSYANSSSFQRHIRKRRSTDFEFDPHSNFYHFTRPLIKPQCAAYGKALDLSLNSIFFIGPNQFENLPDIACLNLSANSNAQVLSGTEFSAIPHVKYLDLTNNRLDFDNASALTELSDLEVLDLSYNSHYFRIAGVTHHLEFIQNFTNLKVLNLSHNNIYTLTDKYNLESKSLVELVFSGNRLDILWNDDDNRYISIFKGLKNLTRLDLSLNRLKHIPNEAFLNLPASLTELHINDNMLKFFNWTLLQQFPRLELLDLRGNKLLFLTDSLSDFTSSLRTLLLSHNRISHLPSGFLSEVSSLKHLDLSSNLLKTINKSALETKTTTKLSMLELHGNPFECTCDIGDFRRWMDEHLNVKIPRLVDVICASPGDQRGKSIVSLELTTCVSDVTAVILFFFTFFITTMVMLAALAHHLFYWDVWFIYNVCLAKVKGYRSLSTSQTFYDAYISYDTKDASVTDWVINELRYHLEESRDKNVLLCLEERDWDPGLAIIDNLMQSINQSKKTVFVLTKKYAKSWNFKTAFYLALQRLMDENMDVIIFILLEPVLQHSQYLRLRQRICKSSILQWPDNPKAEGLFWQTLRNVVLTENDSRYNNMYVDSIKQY
# experiment: TLR8 inhibition reporter assay (HEK-Blue SEAP reporter, R848 stimulation)
# test-context: HEK-Blue cells overexpressing human TLR8, SEAP reporter, R848 15.9 μM, 22 hour incubation
Listed next: entries and their corresponding log10 IC50.
outcome-measure: log10 IC50 (log10 of the value in nM)

# smiles-record, numeric-readout
records = [
    ("CCCN1CCC(c2ccc3[nH]c(-c4cc(-c5ccc(N6CCOCC6)nc5)c(=O)n(C)c4)c(C(C)C)c3c2)CC1", 2.64),
    ("CCc1cc(-c2[nH]c3ccc(C4CCNCC4)cc3c2C(C)C)c(C)n(C)c1=O", 0.89),
    ("COc1cc(-c2[nH]c3ccc(C4CCN(C5COC5)CC4)cc3c2C(C)C)cn(C)c1=O", 1.13),
    ("Cc1cc(-c2[nH]c3ccc(C4CCNCC4)cc3c2C(C)C)cn(CC(C)C)c1=O", 1.91),
    ("Cc1cc(-c2[nH]c3ccc(C4CCN(CC(C)(C)O)CC4)cc3c2C(C)C)cn(Cc2ccccc2)c1=O", 1.51),
    ("CCCN1CCC(c2ccc3[nH]c(-c4cc(-c5cncnc5)c(=O)n(CC)c4)c(C(C)C)c3c2)CC1", 0.49),
    ("CC(C)CCN1CCC(c2ccc3[nH]c(-c4cc(-c5ccccc5)c(=O)n(C)c4)c(C(C)C)c3c2)CC1", 0.85),
    ("Cc1ccc(-c2cc(-c3[nH]c4ccc(C5CCNCC5)cc4c3C(C)C)cn(C)c2=O)cc1", 2.31),
    ("Cc1cc(-c2[nH]c3ccc(C4CCN(C)CC4)cc3c2C(C)C)cn(CCO)c1=O", 2.97),
    ("CNC(=O)CN1CCC(c2ccc3[nH]c(-c4cn(C)c(=O)c(OC)c4C)c(C(C)C)c3c2)CC1", 1.60),
    ("COCCn1cc(-c2[nH]c3ccc(C4CCN(C(=O)CN(C)C)CC4)cc3c2C(C)C)cc(C)c1=O", 0.93),
    ("Cc1c(-c2[nH]c3ccc(C4CCN(CC5(O)CCOCC5)CC4)cc3c2C(C)C)cn(C)c(=O)c1C", 0.20),
    ("CNC(=O)CN1CCC(c2ccc3[nH]c(-c4cn(C)c(=O)c(C)c4C)c(C(C)C)c3c2)CC1", 0.75),
    ("Cc1c(-c2[nH]c3ccc(C4CCNCC4)cc3c2C(C)C)cn(C)c(=O)c1Cl", 0.85),
    ("Cc1cc(-c2[nH]c3ccc(C4CCN(C(=O)CN(C)C)CC4)cc3c2C(C)C)cn(Cc2ccccc2)c1=O", 1.34),
]
